Hello, the source for this data is patent US20240131167A1, in case you need it.

- measured on: EGFR (L858R/T790M/C797S) in BaF3-LTC cells (Homo sapiens, UniProt P00533, C797S/L858R/T790M)
- Construct: expressed in transfected cells; host or cells: BaF3-LTC
- Sequence (P00533 25-1210 T790M/C797S/L858R): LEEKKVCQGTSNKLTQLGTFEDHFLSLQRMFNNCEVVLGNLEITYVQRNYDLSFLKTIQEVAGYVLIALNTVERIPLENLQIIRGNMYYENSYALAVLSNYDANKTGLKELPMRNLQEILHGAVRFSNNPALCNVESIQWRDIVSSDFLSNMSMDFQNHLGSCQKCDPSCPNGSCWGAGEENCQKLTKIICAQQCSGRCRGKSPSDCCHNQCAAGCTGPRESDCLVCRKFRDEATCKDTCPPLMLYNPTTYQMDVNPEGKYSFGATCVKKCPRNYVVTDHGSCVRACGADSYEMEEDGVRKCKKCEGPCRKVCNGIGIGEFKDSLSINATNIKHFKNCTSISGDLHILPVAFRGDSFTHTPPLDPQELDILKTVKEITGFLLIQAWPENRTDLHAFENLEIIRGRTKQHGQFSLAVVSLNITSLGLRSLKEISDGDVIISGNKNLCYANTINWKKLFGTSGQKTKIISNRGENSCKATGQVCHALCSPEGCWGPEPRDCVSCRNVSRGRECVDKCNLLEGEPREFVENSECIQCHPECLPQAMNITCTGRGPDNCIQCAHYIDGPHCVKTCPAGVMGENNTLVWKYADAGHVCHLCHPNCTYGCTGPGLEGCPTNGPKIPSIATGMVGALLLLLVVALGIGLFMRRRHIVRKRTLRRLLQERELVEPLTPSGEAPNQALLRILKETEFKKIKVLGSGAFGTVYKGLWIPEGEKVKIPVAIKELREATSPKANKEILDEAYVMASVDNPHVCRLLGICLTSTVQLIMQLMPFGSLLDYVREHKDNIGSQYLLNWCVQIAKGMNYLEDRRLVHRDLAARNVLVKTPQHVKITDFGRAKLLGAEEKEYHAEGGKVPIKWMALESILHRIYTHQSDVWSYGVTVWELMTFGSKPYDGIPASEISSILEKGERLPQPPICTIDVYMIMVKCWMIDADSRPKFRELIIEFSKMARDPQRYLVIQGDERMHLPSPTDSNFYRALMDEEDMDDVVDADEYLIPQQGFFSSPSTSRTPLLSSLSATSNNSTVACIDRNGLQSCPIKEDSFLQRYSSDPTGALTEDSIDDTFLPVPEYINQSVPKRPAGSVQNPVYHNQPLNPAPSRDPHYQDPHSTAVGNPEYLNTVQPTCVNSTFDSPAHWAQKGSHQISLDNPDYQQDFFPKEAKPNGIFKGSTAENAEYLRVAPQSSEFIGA
- test summary: Cell degradation of EGFR, HTRF assay, BaF3-LTC cells
- Assay type: cell-based
- condition notes: 16 h treatment, maximum percentage of inhibition (degradation)
Consider the following molecules; for each one, report its Dmax.
Give bare numbers, in %.

Your task in this section: give Dmax for each listed record.
1. CCc1cc(Nc2ncc(Br)c(Nc3ccc4nc(C)ccc4c3P3(=O)CCCC3)n2)c(OC)cc1N1CCC(N2CCN(CCc3cccc4c3C(C)(C)C(=O)N4C3CCC(=O)NC3=O)CC2)CC1 (stereo not shown) [Example 73]
2. CCc1cc(Nc2ncc(Br)c(Nc3ccccc3P3(=O)CCCC3)n2)c(OC)cc1N1CCC(N2CCN(C(=O)C3CN(c4cc(F)c(C5CCC(=O)NC5=O)c(F)c4)C3)CC2)CC1 (stereo not shown) [Example 148]
3. CCc1cc(Nc2ncc(Br)c(Nc3ccc4nc(C)ccc4c3P3(=O)CC=CC3)n2)c(OC)cc1N1CCC(N2CCN(CCc3ccc4c(c3)oc(=O)n4C3CCC(=O)NC3=O)CC2)CC1 (stereo not shown) [Example 145]
4. CCc1cc(Nc2ncc(Br)c(Nc3ccccc3P3(=O)CCCC3)n2)c(OC)cc1N1CCC(N2CCN(C(=O)[C@@H]3CCN(c4cc(F)c(C5CCC(=O)NC5=O)c(F)c4)C3)CC2)CC1 (stereo partly shown) [Example 111]
5. CCc1cc(Nc2ncc(Br)c(Nc3ccc4nc(C)ccc4c3P3(=O)CCCC3)n2)c(OC)cc1N1CCC(N2CCN(CCc3cccc4c3n(C)c(=O)n4C3CCC(=O)NC3=O)CC2)CC1 (stereo not shown) [Example 68]
6. CCc1cc(Nc2ncc(Br)c(Nc3ccc4nc(C)ccc4c3P3(=O)CCCC3)n2)c(OC)cc1N1CCC(N2CCN(CCc3ccc4c(c3)oc(=O)n4C3CCC(=O)NC3=O)CC2)CC1 (stereo not shown) [Example 71]

Result string:
1. 89.9
2. 90.2
3. 91.8
4. 90.3
5. 90.8
6. 88.6

Query string: Need Dmax, item CCc1cc(Nc2ncc(Br)c(Nc3ccccc3P3(=O)CCCC3)n2)c(OC)cc1N1CCC(N2CCN(CCc3cc(F)c(C4CCC(=O)NC4=O)c(F)c3)CC2)CC1 (stereo not shown) [Example 147]
Result string: 86.6
